Tested on: Rat intestinal maltase
Experiment: Rat intestinal maltase inhibition
Format: biochemical
Details: α-Glucosidase, 1000 μM
measurement.label: Inhibition % at 1000 μM
Answer as a quantity: numeral, then unit.

Some solved cases for reference:
compound | Inhibition % at 1000 μM
CC(=O)NC[C@@H]1N[C@@H](CO)[C@@H](O)[C@H]1O [C-10] | 35.4%
CC(=O)NC[C@@H]1N[C@H](CO)[C@H](O)[C@H]1O [F-10a] | 14.6%
CC(=O)NC[C@H]1N[C@H](CO)[C@H](O)[C@H]1O [F-10b] | 12.7%
CC(=O)NC[C@H]1N[C@@H](CO)[C@@H](O)[C@@H]1O [E-10a] | 12.7%
CC(=O)NC[C@H]1N[C@@H](CO)[C@H](O)[C@@H]1O [G-10] | 16.0%

Record Inhibition % at 1000 μM for all entries; do not skip any.
1. CC(=O)NC[C@@H]1N[C@@H](CO)[C@@H](O)[C@@H]1O [E-10b]
2. CC(=O)NC[C@@H]1N[C@H](CO)[C@@H](O)[C@H]1O [H-10]

1: 0%; 2: 13.6%

====

Molecular target: α-N-Acetylgalactosaminidase (Chicken liver) (Gallus gallus, UniProt Q90744)
Construct: purchased Sigma-Aldrich Chemical Co; host or cells: chicken liver
Sequence (Q90744 whole entry): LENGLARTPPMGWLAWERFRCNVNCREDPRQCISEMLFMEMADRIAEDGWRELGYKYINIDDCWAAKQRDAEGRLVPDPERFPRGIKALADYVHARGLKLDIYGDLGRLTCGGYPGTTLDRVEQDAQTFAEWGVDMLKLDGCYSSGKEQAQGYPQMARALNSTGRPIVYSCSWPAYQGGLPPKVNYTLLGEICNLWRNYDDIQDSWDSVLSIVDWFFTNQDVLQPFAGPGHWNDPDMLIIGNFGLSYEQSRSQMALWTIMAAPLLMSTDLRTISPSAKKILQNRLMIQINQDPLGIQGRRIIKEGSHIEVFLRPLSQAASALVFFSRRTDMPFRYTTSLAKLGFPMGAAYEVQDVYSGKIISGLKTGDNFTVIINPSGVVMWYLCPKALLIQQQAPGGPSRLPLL
Experiment: α-N-Acetylgalactosaminidase (chicken liver) inhibition
Format: biochemical
measurement.label: IC50 (µM)
Answers are plain numbers, in µM.

Return reported IC50 for target or system α-N-Acetylgalactosaminidase (Chicken liver) (Gallus gallus, UniProt Q90744), item CC(=O)NC[C@H]1N[C@H](CO)[C@H](O)[C@@H]1O [D-10] .
65.3

====

Assignment: determine reported IC50 for the given compounds.
Molecular target: β-N-Acetylhexosaminidase (Bovine liver)
Experiment: β-N-Acetylhexosaminidase (bovine liver) inhibition
Type: biochemical
Details: β-N-Acetylhexosaminidase (β-GlcNAcase), read-out: IC50
Structures can show the parent of a compound that is named as a salt.
Numbers only, in µM.

compound | readout.value
CC(=O)NC[C@H]1N[C@H](CO)[C@@H](O)[C@@H]1O [4·HCl] | 4.7
CC(=O)NC[C@H]1N[C@H](CO)[C@H](O)[C@H]1O [F-10b] | 652
CC(=O)NC[C@H]1N[C@@H](CO)[C@@H](O)[C@@H]1O [E-10a] | 95
CC(=O)NC[C@H]1N[C@@H](CO)[C@H](O)[C@@H]1O | 299

Moving on to another compound below.
Find the measured IC50 of `CC(=O)NC[C@@H]1N[C@@H](CO)[C@H](O)[C@H]1O` and report it.
943

====

Assignment: determine reported Inhibition % at 1000 μM for the given compounds.
Tested on: β-Mannosidase (Snail)
Assay: β-Mannosidase (snail) inhibition
Format: biochemical
Conditions: 1000 μM
Give bare numbers, in %.

Some solved cases for reference:
compound | Inhibition % at 1000 μM, %
CC(=O)NC[C@@H]1N[C@@H](CO)[C@@H](O)[C@@H]1O [E-10b] | 0
CC(=O)NC[C@H]1N[C@@H](CO)[C@@H](O)[C@@H]1O [E-10a] | 25.8
CC(=O)NC[C@H]1N[C@H](CO)[C@H](O)[C@H]1O [F-10b] | 0
CC(=O)NC[C@@H]1N[C@H](CO)[C@@H](O)[C@H]1O | 0
CC(=O)NC[C@@H]1N[C@@H](CO)[C@@H](O)[C@H]1O | 0
CC(=O)NC[C@@H]1N[C@@H](CO)[C@H](O)[C@H]1O | 0
CC(=O)NC[C@@H]1N[C@H](CO)[C@H](O)[C@H]1O [F-10a] | 3.23
CC(=O)NC[C@H]1N[C@H](CO)[C@H](O)[C@@H]1O | 0

Moving on to another compound below.
Find the measured Inhibition % at 1000 μM of `CC(=O)NC[C@H]1N[C@@H](CO)[C@H](O)[C@@H]1O` and report it.
0

This collection of values is drawn from paper PMC7180638.
